molecular target: Human PD-L1/PD-1 (Homo sapiens); construct: TVMV protease cleavage site (C); made in house; host or cells: HEK293T cells; experiment: HTRF Human PD-L1/PD-1 binding assay (PD-1-Ig/PD-L1-His); details: PD-L1-His 10 nM, PD-1-Ig 20 nM; class symbol; read-out: HTRF Human PD-L1/PD-1 Binding Assay IC50 Range
Sequence (Q9NZQ7 with tags, fused parts or gaps): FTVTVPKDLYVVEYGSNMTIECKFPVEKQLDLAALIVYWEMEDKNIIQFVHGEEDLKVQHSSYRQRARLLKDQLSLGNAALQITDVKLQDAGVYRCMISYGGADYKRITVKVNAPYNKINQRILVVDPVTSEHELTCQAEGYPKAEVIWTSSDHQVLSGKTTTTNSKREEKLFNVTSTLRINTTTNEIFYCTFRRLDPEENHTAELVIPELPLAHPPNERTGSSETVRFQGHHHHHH
Where a SMILES comes first, the peptide text is derived from it. Bridges are numbered along the chain shown (N, C = ends). [ ]: non-standard residue; d: D form. Phe(4-F) = N[C@@H](Cc1ccc(F)cc1)C(=O)O; NMeF = CN[C@@H](Cc1ccccc1)C(=O)O; NMeL = CN[C@@H](CC(C)C)C(=O)O; NMeNle = CCCC[C@H](NC)C(=O)O; dPip = O=C(O)[C@H]1CCCCN1; Sar = CNCC(=O)O
MEASURED_ATTRIBUTE: IC50

CCCC[C@H]1C(=O)N2CCC[C@@H]2C(=O)N[C@@H](CC(=O)O)C(=O)N[C@@H](C(C)C)C(=O)N(C)[C@@H](CC(C)C)C(=O)N[C@@H](CCC(N)=O)C(=O)N2CCC[C@@H]2C(=O)N[C@@H](Cc2c[nH]c3ccccc23)C(=O)N[C@@H](Cc2ccc(O)cc2)C(=O)N[C@@H](CC(C)C)C(=O)N[C@H](C(=O)NCC(N)=O)CSCC(=O)N[C@@H](Cc2ccc(F)cc2)C(=O)N(C)[C@@H](Cc2ccccc2)C(=O)N1C [Example 9253] ({CH2CO}-[Phe(4-F)][NMeF][NMeNle][dP]DV[NMeL]Q[dP]WYLCG-NH2; thioether N-13) : 1000 to 10000 nM

Prompt: Name the recorded IC50 for CCCC[C@H]1C(=O)N(C)CC(=O)N[C@@H](CO)C(=O)N[C@@H](C(C)C)C(=O)N(C)[C@@H](Cc2ccccc2)C(=O)N[C@@H](Cc2ccc(O)cc2)C(=O)N2CCCC[C@@H]2C(=O)N[C@@H](Cc2c[nH]c3ccccc23)C(=O)N[C@@H](Cc2ccc(O)cc2)C(=O)N[C@@H](CC(C)C)C(=O)N[C@H](C(=O)NCC(N)=O)CSCC(=O)N[C@@H](Cc2ccccc2)C(=O)N(C)[C@@H](Cc2ccccc2)C(=O)N1C [Example 10065] ({CH2CO}-F[NMeF][NMeNle][Sar]SV[NMeF]Y[dPip]WYLCG-NH2; thioether N-13) .
Completion: 10 to 99.9 nM
